Value source: patent US20060046968A1

Reported values of mean uterine weight ± SEM for individual entries
Test system: Sexually immature 129 SvE mice
Test: Mouse uterotrophic test procedure (Procedure 2)
Assay type: in vivo
Details: compound 50 mg/kg s.c., days 22-25
The reply should be a number in mg, with the unit left off.

Some compounds with known mean uterine weight ± SEM results, for comparison:
C=Cc1cc(O)cc2nc(-c3ccc(O)c(F)c3)oc12 [Example 24] | 10.7
NC(=O)c1cc(O)cc2nc(-c3ccc(O)cc3)oc12 [Example 42] | 9.5
C=C(F)c1cc(O)cc2nc(-c3ccc(O)c(F)c3)oc12 [Example 64] | 9.8

Entry C=Cc1cc(O)cc2nc(-c3ccc(O)cc3F)oc12 [Example 25] : mean uterine weight ± SEM on Sexually immature 129 SvE mice = 9.7

Item Oc1ccc(-c2nc3cc(O)ccc3o2)cc1 [Example 12, 2-(4-HYDROXYPHENYL)-1,3-BENZOXAZOL-5-OL] was tested on Sexually immature 129 SvE mice; the reported mean uterine weight ± SEM is 13.7

Lab entry: Sexually immature 129 SvE mice assay, compound C=Cc1cc(O)cc2nc(-c3ccc(O)c(F)c3F)oc12 [Example 26] , mean uterine weight ± SEM = 9.0
